Where do the numbers come from? From ChEMBL document CHEMBL4689842.

Overview of reported Total Cell Count across a group of molecules:
Tested on: Fibroblast
TEST_DETAILS: Multiplex assay against human fibroblast
Assay type: toxicity, cell-based
RUN_CONDITIONS: 24 h, 1 µM, compound concentration 1 uM, replicate 1
MEASURED_ENDPOINT: Total Cell Count

molecule="CC[C@@H]1C(=O)N(C)c2cnc(Nc3ccc(C(=O)NC4CCN(C)CC4)cc3OC)nc2N1C1CCCC1 [BI-2536]" recorded_result=225
molecule=Cc1ccc(NC(=O)Nc2cc(C(F)(F)F)ccc2F)cc1Nc1ccc2c(c1)NC(=O)/C2=C\c1ccc[nH]1 recorded_result=179
molecule="CC(Cc1ccc(O)c(O)c1)C(C)Cc1ccc(O)c(O)c1 (stereo not given) [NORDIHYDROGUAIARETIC ACID]" recorded_result=165
molecule=C=CC(=O)Nc1cc(-n2c(=O)ccc3cnc4ccc(-c5ccc(NS(C)(=O)=O)cc5)cc4c32)ccc1C recorded_result=78
molecule="N#CCNC(=O)c1ccc(-c2ccnc(Nc3ccc(N4CCOCC4)cc3)n2)cc1 [MOMELOTINIB]" recorded_result=127

----------
System: U2OS
TEST_DETAILS: Multiplex assay against U2OS
Type: toxicity, cell-based
RUN_CONDITIONS: human, 24 h, 10 µM, compound concentration 10 uM, replicate 1
So basically: is Population Apoptotic (%) under 60%? Then condition met. Not under? Then condition not met.

molecule="CN1C(=O)[C@@H](NC(=O)c2cc3ccccc3[nH]2)N=C(c2ccccc2)c2ccccc21 [DEVAZEPIDE]" class="condition not met"
molecule="Cl.Cn1c2c(c3ccc(Cl)c(Cl)c31)C(C#N)C1(CCNCC1)NC2=O (centres undefined)" class="condition not met"
molecule=CCOc1ccn(-c2ccc(F)cc2)c(=O)c1C(=O)Nc1ccc(Oc2ccnc(N)c2Cl)c(F)c1 class="condition met"
molecule=N#Cc1cccc(C(=O)Nc2cc(-c3ccccc3)nn2-c2ccccc2)c1 class="condition met"
molecule=CCCCN(CC)c1nc(C)nc2c1c(C)cn2-c1c(C)cc(C)cc1C.Cl class="condition not met"
molecule=CN(c1cc(C(F)(F)F)nc(OCCC(=O)O)n1)c1cccc2c1CCC2 class="condition met"
molecule=CCOC(=O)CCNc1cc(N2CCc3ccccc3CC2)nc(-c2ccccn2)n1 class="condition not met"
molecule=CC[C@@H]1C(=O)N(C)c2cnc(Nc3ccc(C(=O)NC4CCN(C)CC4)cc3OC)nc2N1C1CCCC1 class="condition not met"

----------
Overview of reported Total Cell Count across a group of compounds:
System: U2OS
TEST_DETAILS: Multiplex assay against U2OS
Type: toxicity, cell-based
RUN_CONDITIONS: human, 12 h, 1 µM, compound concentration 1 uM, replicate 2
MEASURED_ENDPOINT: Total Cell Count

chemical_structure=CCOc1ccn(-c2ccc(F)cc2)c(=O)c1C(=O)Nc1ccc(Oc2ccnc(N)c2Cl)c(F)c1 measured_endpoint="Total Cell Count" recorded_result=94
chemical_structure=CCCc1cc(C)[nH]c(=O)c1CNC(=O)c1cc(-c2ccc(N3CCN(C(C)C)CC3)nc2)cc2c1cnn2C(C)C measured_endpoint="Total Cell Count" recorded_result=56
chemical_structure=CC(C)[C@H](CO)Nc1nc(Nc2cccc(Cl)c2)c2ncn(C(C)C)c2n1 measured_endpoint="Total Cell Count" recorded_result=111
chemical_structure=Cc1ccc(NC(=O)Nc2cc(C(F)(F)F)ccc2F)cc1Nc1ccc2c(c1)NC(=O)/C2=C\c1ccc[nH]1 measured_endpoint="Total Cell Count" recorded_result=88

----------
Tested on: Fibroblast
TEST_DETAILS: Multiplex assay against human fibroblast
Assay type: toxicity, cell-based
RUN_CONDITIONS: 48 h, 10 µM, compound concentration 10 uM, replicate 2
MEASURED_ENDPOINT: Population Fragmented Nuclei (%)

molecule=CN(c1cc(C(F)(F)F)nc(OCCC(=O)O)n1)c1cccc2c1CCC2 recorded_result=22
molecule="CC(Cc1ccc(O)c(O)c1)C(C)Cc1ccc(O)c(O)c1 (stereo not given) [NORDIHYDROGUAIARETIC ACID]" recorded_result=20
molecule=CCCCN(CC)c1nc(C)nc2c1c(C)cn2-c1c(C)cc(C)cc1C.Cl recorded_result=46
molecule=Cl.NC[C@@H]1O[C@H](C23CC4CC(CC(C4)C2)C3)Cc2c1ccc(O)c2O recorded_result=50
molecule=Cc1c(P(=S)(c2ccccc2)c2ccccc2)n2ccccc2[n+]1C/C=C/c1ccccc1.[Br-] recorded_result=52

----------
Tested on: Fibroblast
TEST_DETAILS: Multiplex assay against human fibroblast
Format: toxicity, cell-based
RUN_CONDITIONS: 48 h, 10 µM, compound concentration 10 uM, replicate 1
MEASURED_ENDPOINT: Population Membrane Permeable-Phenotype (%)

molecule=CC(/C=C1\SC(=S)N(CCCC(=O)Nc2ccc(C(=O)O)c(O)c2)C1=O)=C\c1ccccc1 recorded_result=37%
molecule=CC(C)C[C@H](NC(=O)[C@H](Cc1ccccc1)NC(=O)CNC(=O)CNC(=O)[C@@H](N)Cc1ccc(O)cc1)C(=O)O recorded_result=26%
molecule=c1ccc(-c2oc3ncnc(NC[C@@H]4CCCO4)c3c2-c2ccccc2)cc1 recorded_result=13%
molecule=Cl.NC[C@@H]1O[C@H](C23CC4CC(CC(C4)C2)C3)Cc2c1ccc(O)c2O recorded_result=50%
molecule=Cc1c(Nc2ccc(S(=O)(=O)N3CCN(C)CC3)cc2F)nc2ccc(-c3cnn(C4CC4)c3)cn2c1=O recorded_result=14%
molecule="CC(Cc1ccc(O)c(O)c1)C(C)Cc1ccc(O)c(O)c1 (stereo not drawn) [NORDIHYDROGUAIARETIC ACID]" recorded_result=6%
molecule=CC(C)[C@H](CO)Nc1nc(Nc2cccc(Cl)c2)c2ncn(C(C)C)c2n1 recorded_result=11%
molecule=Oc1cccc(-c2nc(N3CCOCC3)c3oc4ncccc4c3n2)c1 recorded_result=34%

----------
System: Fibroblast
TEST_DETAILS: Multiplex assay against human fibroblast
Type: toxicity, cell-based
RUN_CONDITIONS: 24 h, 1 µM, compound concentration 1 uM, replicate 2
Threshold check on Total Cell Count: at or above 70 gives yes, strictly below gives no.

molecule=N#CCNC(=O)c1ccc(-c2ccnc(Nc3ccc(N4CCOCC4)cc3)n2)cc1 class=yes
molecule=CC(/C=C1\SC(=S)N(CCCC(=O)Nc2ccc(C(=O)O)c(O)c2)C1=O)=C\c1ccccc1 class=no
molecule=Cc1ccc(S(=O)(=O)NC2c3ccccc3Oc3ccccc32)cc1 class=no
molecule="Cl.Cn1c2c(c3ccc(Cl)c(Cl)c31)C(C#N)C1(CCNCC1)NC2=O (centres undefined)" class=yes
molecule=CCOc1ccn(-c2ccc(F)cc2)c(=O)c1C(=O)Nc1ccc(Oc2ccnc(N)c2Cl)c(F)c1 class=yes
molecule=CCOC(=O)CCNc1cc(N2CCc3ccccc3CC2)nc(-c2ccccn2)n1 class=no
molecule=Cl.NC[C@@H]1O[C@H](C23CC4CC(CC(C4)C2)C3)Cc2c1ccc(O)c2O class=yes

----------
System: Fibroblast
TEST_DETAILS: Multiplex assay against human fibroblast
Type: toxicity, cell-based
RUN_CONDITIONS: 24 h, 10 µM, compound concentration 10 uM, replicate 2
MEASURED_ENDPOINT: Population Mitochondria Different-Phenotype (%)

compound=CCCCN(CC)c1nc(C)nc2c1c(C)cn2-c1c(C)cc(C)cc1C.Cl recorded_result=54
compound="NC(=O)c1ccc2nc(-c3ccc(C4(N)CCC4)cc3)c(-c3ccccc3)n2n1 [BAY-1125976]" recorded_result=4
compound=Cc1c(P(=S)(c2ccccc2)c2ccccc2)n2ccccc2[n+]1C/C=C/c1ccccc1.[Br-] recorded_result=81
compound="CC[C@@H]1C(=O)N(C)c2cnc(Nc3ccc(C(=O)NC4CCN(C)CC4)cc3OC)nc2N1C1CCCC1 [BI-2536]" recorded_result=35
compound="CN1C(=O)[C@@H](NC(=O)c2cc3ccccc3[nH]2)N=C(c2ccccc2)c2ccccc21 [DEVAZEPIDE]" recorded_result=45
compound="C[C@@H](Oc1cc(-n2cnc3ccc(CN4CCN(C)CC4)cc32)sc1C(N)=O)c1ccccc1C(F)(F)F [GSK-461364]" recorded_result=100
compound=Cc1ccc(NC(=O)Nc2cc(C(F)(F)F)ccc2F)cc1Nc1ccc2c(c1)NC(=O)/C2=C\c1ccc[nH]1 recorded_result=5
compound=C=CC(=O)Nc1cc(-n2c(=O)ccc3cnc4ccc(-c5ccc(NS(C)(=O)=O)cc5)cc4c32)ccc1C recorded_result=50

----------
Tested on: U2OS
TEST_DETAILS: Multiplex assay against U2OS
Format: toxicity, cell-based
RUN_CONDITIONS: human, 12 h, 10 µM, compound concentration 10 uM, replicate 1
MEASURED_ENDPOINT: Population Hoechst High Intensity Objects (%)

molecule=Cc1c(P(=S)(c2ccccc2)c2ccccc2)n2ccccc2[n+]1C/C=C/c1ccccc1.[Br-] study_target=U2OS recorded_result=21%
molecule=C=CC(=O)Nc1cc(-n2c(=O)ccc3cnc4ccc(-c5ccc(NS(C)(=O)=O)cc5)cc4c32)ccc1C study_target=U2OS recorded_result=7%
molecule="C[C@@H](Oc1cc(-n2cnc3ccc(CN4CCN(C)CC4)cc32)sc1C(N)=O)c1ccccc1C(F)(F)F [GSK-461364]" study_target=U2OS recorded_result=9%
molecule="CC(Cc1ccc(O)c(O)c1)C(C)Cc1ccc(O)c(O)c1 (stereo not drawn) [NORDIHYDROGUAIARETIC ACID]" study_target=U2OS recorded_result=14%
molecule="CCCCCNC(=N)N/N=C/c1c[nH]c2ccc(OC)cc12.O=C(O)/C=C\\C(=O)O [TEGASEROD MALEATE]" study_target=U2OS recorded_result=12%
molecule=Cl.NC[C@@H]1O[C@H](C23CC4CC(CC(C4)C2)C3)Cc2c1ccc(O)c2O study_target=U2OS recorded_result=8%
molecule="CN1C(=O)[C@@H](NC(=O)c2cc3ccccc3[nH]2)N=C(c2ccccc2)c2ccccc21 [DEVAZEPIDE]" study_target=U2OS recorded_result=6%
molecule=CCCc1cc(C)[nH]c(=O)c1CNC(=O)c1cc(-c2ccc(N3CCN(C(C)C)CC3)nc2)cc2c1cnn2C(C)C study_target=U2OS recorded_result=8%
